run.description: Acute Toxicity Test
experimental.parameters: mouse, in vivo; ip, mice, suspended in 1% arabic gum
Excerpt: Male ddY-STF mice having an age of 4 to 5 weeks and a body weight of 22 to 30 g were used for evaluating the acute toxicity of the present compounds. The sample compound was suspended in 1% arabic gum and was intraperitoneally injected.
Provide the reported LD50 of each item.

Ask | Entry under review: COC1=C(OC)C(=O)C(C(CCCC(=O)O)c2ccccc2)=C(C)C1=O (stereo not drawn) [compound 2, reference compound] . Reported LD50?
Reply | > 500 mg/kg

Ask | Please answer likewise for COC1=C(OC)C(=O)C(C(CCCC(=O)N2CCSCC2)c2ccccc2)=C(C)C1=O (stereo not drawn) [Example 4]
Reply | > 1000 mg/kg

Ask | Please answer likewise for COC1=C(OC)C(=O)C(C(CCC(=O)N2CCSCC2)c2ccccc2)=C(C)C1=O (stereo not drawn) [Example 1]
Reply | > 1000 mg/kg

Ask | Please answer likewise for COC1=C(OC)C(=O)C(C(CCC(=O)O)c2ccccc2)=C(C)C1=O (stereo not drawn) [compound 1, reference compound]
Reply | > 500 mg/kg

Ask | Please answer likewise for COC1=C(OC)C(=O)C(C(CCCCCC(=O)O)c2ccccc2)=C(C)C1=O (stereo not drawn) [compound 3, reference compound]
Reply | > 500 mg/kg

Ask | Please answer likewise for COC1=C(OC)C(=O)C(C(CCCC(=O)N2CCOCC2)c2ccccc2)=C(C)C1=O (stereo not drawn) [Example 5]
Reply | > 1000 mg/kg
